These data points were gathered from patent US10144746B2.

- test target: Human plasma kallikrein (Homo sapiens (Human))
- Sequence (P03952 391-638): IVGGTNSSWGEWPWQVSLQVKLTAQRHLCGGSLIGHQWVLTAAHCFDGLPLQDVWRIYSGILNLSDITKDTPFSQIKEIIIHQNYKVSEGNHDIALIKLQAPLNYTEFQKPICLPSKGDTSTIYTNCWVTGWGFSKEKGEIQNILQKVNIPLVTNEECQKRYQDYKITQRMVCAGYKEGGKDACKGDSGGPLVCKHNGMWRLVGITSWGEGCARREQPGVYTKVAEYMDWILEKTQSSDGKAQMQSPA
- Sequence (P03952 20-390 partner): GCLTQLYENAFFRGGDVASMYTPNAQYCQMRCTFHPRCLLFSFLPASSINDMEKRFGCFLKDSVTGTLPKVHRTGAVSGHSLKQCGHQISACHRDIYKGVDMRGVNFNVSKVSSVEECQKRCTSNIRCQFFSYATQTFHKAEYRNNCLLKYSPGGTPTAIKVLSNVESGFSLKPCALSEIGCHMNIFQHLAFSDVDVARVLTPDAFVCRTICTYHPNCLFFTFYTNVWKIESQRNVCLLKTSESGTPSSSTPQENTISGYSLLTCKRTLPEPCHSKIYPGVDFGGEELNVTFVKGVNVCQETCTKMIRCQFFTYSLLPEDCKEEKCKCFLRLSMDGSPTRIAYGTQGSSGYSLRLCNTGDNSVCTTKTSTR
- assay name: In vitro plasma kallikrein inhibition assay (chromogenic substrate D-Pro-Phe-Arg-pNa, absorbance at 405 nm, IC50 determination)
- Assay type: biochemical
- test parameters: read-out: KLKB1 pIC50 (converted)
metric: IC50 (µM)

>>> value("C#Cc1ccccc1-c1ccc2c(c1)C1OC2c2ccc(C(=O)NCc3c(C)cc(N)nc3C)cc21 (racemic)")
6.31
>>> value("N=C(N)c1ccc(CNC(=O)c2ccc3c(c2)C2OC3c3ccc(-c4ccccc4)cc32)cc1 (racemic)")
0.00457
>>> value("COc1cc(N)nc(C)c1CNC(=O)c1ccc2c(c1)C1OC2c2ccc(-c3c(C)cc(F)cc3F)cc21 (racemic)")
0.0347
>>> value("Cc1cc2c(cc1C)C1OC2c2ccc(C(=O)NCc3c(C)cc(N)nc3C)cc21 (racemic)")
0.224
>>> value("O=C(NCC1CNC1)c1ccc2c(c1)[C@@H]1O[C@H]2c2ccc(-c3ccc(F)cc3F)cc21 (single isomer, unassigned)")
100
>>> value("CN(C)C(=NC(=N)c1ccc(CNC(=O)c2ccc3c(c2)C2OC3c3ccc(-c4ccccc4)cc32)cc1)N(C)C (racemic)")
0.129
>>> value("Cc1cccc(Oc2ccc3c(c2)C2OC3c3ccc(C(=O)NCc4c(C)cc(N)nc4C)cc32)c1 (racemic)")
1.86
>>> value("COc1cc(CNC(=O)c2ccc3c(c2)[C@@H]2O[C@H]3c3ccc(-c4ccc(F)cc4F)cc32)ccc1C(=N)N (single isomer, unassigned)")
0.00589
>>> value("Cc1cc(N)nc(C)c1CNC(=O)c1ccc2c(c1)C1OC2c2ccc(-c3cc(F)c(F)cc3F)cc21 (racemic)")
0.0347

----------
- test target: Human plasma kallikrein (Homo sapiens (Human))
- assay name: In vitro plasma kallikrein inhibition assay (chromogenic substrate D-Pro-Phe-Arg-pNa, absorbance at 405 nm, IC50 determination)
- Type: biochemical
- test parameters: read-out: KLKB1 pIC50 (converted)
metric: IC50 (nM)

>>> value("Cc1cc(N)nc(C)c1CNC(=O)c1ccc2c(c1)[C@@H]1O[C@H]2c2ccc(CN3CCCN(C)C3=O)cc21 (single isomer, unassigned)")
12.9
>>> value("Cc1ccc(-c2ccc3c(c2)[C@H]2O[C@@H]3c3ccc(C(=O)NCc4cccc5c(N)nccc45)cc32)c(C#N)c1 (single isomer, unassigned)")
15.8
>>> value("N/C(=N\\O)c1ccc(CNC(=O)c2ccc3c(c2)C2OC3c3ccc(-c4ccc(F)cc4F)cc32)cc1F (racemic)")
100000

----------
compounds and their reported IC50
- test target: Human plasma kallikrein (Homo sapiens (Human))
- assay name: In vitro plasma kallikrein inhibition assay (chromogenic substrate D-Pro-Phe-Arg-pNa, absorbance at 405 nm, IC50 determination)
- Type: biochemical
- test parameters: read-out: KLKB1 pIC50 (converted)
metric: IC50 (nM)

>>> value("Nc1cc(C2CC2)c(CNC(=O)c2ccc3c(c2)[C@@H]2O[C@H]3c3ccc(-c4ccc(F)cc4F)cc32)c(C2CC2)n1 (single isomer, unassigned)")
200000
>>> value("Cc1cc(N)nc(C)c1CNC(=O)c1ccc2c(c1)C1OC2c2ccc(-c3ccc(F)c(C(F)(F)F)c3)cc21 (racemic)")
437
>>> value("N=C(N)c1ccc(CNC(=O)c2ccc3c(c2)[C@@H]2O[C@H]3c3ccc(C4CC4)cc32)c(F)c1 (single isomer, unassigned)")
1
>>> value("Cc1nc(N)cc(C(C)C)c1CNC(=O)c1ccc2c(c1)[C@@H]1O[C@H]2c2ccc(-c3ccc(F)cc3F)cc21 (single isomer, unassigned)")
1
>>> value("Nc1nccc2cc(Cl)c(CNC(=O)c3ccc4c(c3)[C@@H]3O[C@H]4c4ccc(-c5ccccc5F)cc43)cc12 (single isomer, unassigned)")
10000

----------
- test target: Human plasma kallikrein (Homo sapiens (Human))
- assay name: In vitro plasma kallikrein inhibition assay (chromogenic substrate D-Pro-Phe-Arg-pNa, absorbance at 405 nm, IC50 determination)
- Assay type: biochemical
- test parameters: read-out: KLKB1 pIC50 (converted)
metric: IC50 (nM)

>>> value("Nc1nccc2c(CNC(=O)c3ccc4c(c3)[C@@H]3O[C@H]4c4ccc(-c5ccccc5F)cc43)c(Cl)ccc12 (single isomer, unassigned) [Example 294]")
20.9
>>> value("Cc1cc(C(=N)N)ccc1CNC(=O)c1ccc2c(c1)[C@@H]1O[C@H]2c2ccc(-c3ccc(F)cc3F)cc21 (single isomer, unassigned) [Example 306]")
1
>>> value("Cc1cc(-c2ccc(F)cc2)cc2c1C1OC2c2cc(C(=O)NCc3ccc(C(=N)N)cc3)cc(F)c21 (racemic) [Example 396]")
5.01
>>> value("C=C(C)c1ccc2c(c1)[C@H]1O[C@@H]2c2ccc(C(=O)NCc3c(F)cc(C(=N)N)cc3F)cc21 (single isomer, unassigned) [Example 285]")
1
>>> value("COc1ccc(CNC(=O)c2ccc3c(c2)[C@@H]2O[C@H]3c3ccc(-c4ccccc4F)cc32)cc1 (single isomer, unassigned) [Example 253]")
100000
>>> value("CCc1cc(N)nc(C)c1CNC(=O)c1ccc2c(c1)C1OC2c2ccc(-c3ccc(C)cc3C#N)cc21 (racemic) [Example 136]")
3.98
>>> value("Cc1ccc(-c2ccc3c(c2)[C@H]2O[C@@H]3c3ccc(C(=O)NCc4c(C)cc(N)nc4C)cc32)c(C#N)c1 (single isomer, unassigned) [Example 140]")
5.01
>>> value("Cc1cc(N)nc(C)c1CNC(=O)c1ccc2c(c1)[C@@H]1O[C@H]2c2ccc(-c3ccc(Cl)cc3F)cc21 (single isomer, unassigned) [Example 174]")
46.8
>>> value("Cc1cc(CN)cc(C)c1CNC(=O)c1ccc2c(c1)C1OC2c2ccc(-c3ccc(Cl)c(F)c3F)cc21 (racemic) [Example 125]")
661
>>> value("Nc1noc2ccc(NC(=O)c3ccc4c(c3)[C@@H]3O[C@H]4c4ccc(-c5ccc(F)cc5F)cc43)cc12 (single isomer, unassigned) [Example 245]")
10000
>>> value("COc1ccncc1-c1ccc2c(c1)C1OC2c2ccc(C(=O)NCc3c(C)cc(N)nc3C)cc21 (racemic) [Example 167]")
115
>>> value("Cc1cc(N)nc(C)c1CNC(=O)c1ccc2c(c1)[C@@H]1O[C@H]2c2ccc(C(=O)N(C)c3ccccc3)cc21 (single isomer, unassigned) [Example 194]")
1660
>>> value("Nc1n[nH]c2cc(CNC(=O)c3ccc4c(c3)[C@@H]3O[C@H]4c4ccc(-c5ccc(F)cc5F)cc43)ccc12 (single isomer, unassigned) [Example 207]")
4900
>>> value("Cc1nc(N)cc(C(C)C)c1CNC(=O)c1ccc2c(c1)C1OC2c2ccc(-c3ccc(F)cc3F)cc21 (racemic) [Example 173]")
3.02
>>> value("Cc1cc(N)nc(C)c1CNC(=O)c1ccc2c(c1)[C@@H]1O[C@H]2c2ccc(-c3ccc(F)cc3Cl)cc21 (single isomer, unassigned) [Example 176]")
67.6
>>> value("Cc1nc(N)cc(C(C)C)c1CNC(=O)c1ccc2c(c1)[C@@H]1O[C@H]2c2ccc(-c3cc[n+]([O-])cc3F)cc21 (single isomer, unassigned) [Example 265]")
91.2
>>> value("CCN(c1cccc(F)c1)c1ccc2c(c1)[C@H]1O[C@@H]2c2ccc(C(=O)NCc3c(C)cc(N)nc3C)cc21 (single isomer, unassigned) [Example 230]")
12
>>> value("CCc1cc2c(cc1CC)C1OC2c2ccc(C(=O)NCc3ccc(C(=N)N)cc3)cc21 (racemic) [Example 315]")
1.82
>>> value("CCc1cc(N)nc(CC)c1CNC(=O)c1ccc2c(c1)[C@@H]1O[C@H]2c2ccc(-c3ccc(F)cc3F)cc21 (single isomer, unassigned) [Example 248]")
2570
>>> value("N=C(NC(=O)c1ccc2c(c1)[C@@H]1O[C@H]2c2ccc(-c3ccc(F)cc3F)cc21)c1ccc(N)cc1 (single isomer, unassigned) [Example 221]")
10000
>>> value("Cc1cc(N)nc(C)c1CNC(=O)c1ccc2c(c1)C1OC2c2ccc(-c3cccc(C(F)(F)F)c3C#N)cc21 (racemic) [Example 158]")
112
